- SYSTEM_TESTED: RORc ligand binding domain (Homo sapiens, UniProt P51449)
- Construct: host or cells: E. coli
- Sequence (P51449 269-508 limits assumed): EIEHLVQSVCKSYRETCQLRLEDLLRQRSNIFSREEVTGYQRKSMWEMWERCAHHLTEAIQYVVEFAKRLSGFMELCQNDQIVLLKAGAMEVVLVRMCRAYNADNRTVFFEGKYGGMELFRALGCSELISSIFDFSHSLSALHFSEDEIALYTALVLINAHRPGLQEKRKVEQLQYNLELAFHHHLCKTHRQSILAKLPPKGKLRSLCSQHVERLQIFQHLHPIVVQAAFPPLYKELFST
- MEASUREMENT_NOTES: In Vitro RORc Ligand Binding Assay (25-[3H]hydroxycholesterol radioligand filtration)
- CONDITION_INFO: In Vitro RORc Ligand Binding Assay; Table 4; read-out: RORc IC50
pIC50: −log10 of the molar value.
List of pIC50 values.
METRIC: pIC50

CS(=O)(=O)N1CCC(Nc2ccc(CN3CCCCC(c4ccccc4)S3(=O)=O)c(F)c2)CC1 (single isomer, unassigned) [Example 347]; 8.30
C[C@H]1CCC(c2ccccc2)S(=O)(=O)N1Cc1ccc(C(=O)NCCN2CCCC2=O)cc1 (stereo partly shown) [Example 275]; 5.22
C[C@H]1CCC(c2ccccc2)S(=O)(=O)N1Cc1ccc(N2CCC(S(=O)(=O)N(C)C)CC2)cc1F (single isomer, unassigned) [Example 109]; 7.47
C=C1CCC(c2ccccc2)S(=O)(=O)N(Cc2ccc(N3CCN(C(C)=O)CC3)cc2F)C1 (stereo not shown) [Example 348]; 7.31
